tested system: CCKA (Cavia porcellus, UniProt Q63931)
Construct: The pancreatata were homogenised in 40 ml ice-cold HEPES buffer; from tissue; host or cells: pancreas membranes of male Dunkin Hartley guinea-pigs
Sequence (Q63931 1-430): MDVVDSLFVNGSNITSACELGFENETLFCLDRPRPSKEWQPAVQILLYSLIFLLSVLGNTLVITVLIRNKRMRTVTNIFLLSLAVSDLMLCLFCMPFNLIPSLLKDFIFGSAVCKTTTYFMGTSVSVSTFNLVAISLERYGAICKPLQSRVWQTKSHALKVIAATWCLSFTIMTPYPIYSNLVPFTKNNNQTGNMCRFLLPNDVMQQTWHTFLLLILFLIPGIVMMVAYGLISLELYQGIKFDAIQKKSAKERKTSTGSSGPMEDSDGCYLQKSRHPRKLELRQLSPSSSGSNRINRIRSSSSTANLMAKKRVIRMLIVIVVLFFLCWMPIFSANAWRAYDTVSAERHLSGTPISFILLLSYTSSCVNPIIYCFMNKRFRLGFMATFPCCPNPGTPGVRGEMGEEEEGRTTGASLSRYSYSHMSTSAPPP
assay overview: CCKA binding assay (guinea-pig pancreas membranes)
recorded conditions: [125I]-CCK8(S) 200 pM, 0.375 μM PD134,308 present, 150 minutes at 21±3° C., read-out: CCKA pKi (converted)
observation type: Ki (µM)

Example results:
smiles record	value units	Ki
O=C(O)c1cc(NC(=O)[C@H](Cc2ccccc2)NC(=O)c2ccc([N+](=O)[O-])cc2C(=O)NCC23CC4CC(CC(C4)C2)C3)cc(C(=O)O)c1	µM	3.16
O=C(O)c1cc(NC(=O)[C@H](Cc2ccccc2)NC(=O)c2c[nH]cc2C(=O)NCC23CC4CC(CC(C4)C2)C3)cc(C(=O)O)c1	µM	2
O=C(O)c1cc(NC(=O)[C@H](Cc2ccccc2)NC(=O)c2cccc3c2C(=O)N(CC24CC5CC(CC(C5)C2)C4)C3)cc(C(=O)O)c1	µM	3.16
O=C(O)c1cc(NC(=O)[C@H](Cc2ccc(O)cc2)NC(=O)c2ccccc2C(=O)NCC23CC4CC(CC(C4)C2)C3)cc(C(=O)O)c1	µM	1.58

I = O=C(O)c1cc(NC(=O)[C@@H](Cc2ccccc2)NC(=O)c2ccccc2C(=O)NCC23CC4CC(CC(C4)C2)C3)cc(C(=O)O)c1
II = O=C(O)c1cc(NC(=O)[C@H](Cc2ccccc2)N2Cc3cccc(C(=O)NCC45CC6CC(CC(C6)C4)C5)c3C2=O)cc(C(=O)O)c1
III = COc1ccc(C(=O)NCC23CC4CC(CC(C4)C2)C3)c(C(=O)N[C@@H](Cc2ccccc2)C(=O)Nc2cc(C(=O)O)cc(C(=O)O)c2)c1
Put the entries in order of Ki, starting with the largest number. Form field (ranking): labels in requested order.
I, II, III

###

tested system: Gastrin (Rattus norvegicus, UniProt P30553)
Construct: The stomach was excised and flushed with ca. 1 ml unbuffered physiological saline solution; from tissue; host or cells: isolated whole stomach of immature rats (33-50 g, ca. 21 days old)
Sequence (P30553 1-452): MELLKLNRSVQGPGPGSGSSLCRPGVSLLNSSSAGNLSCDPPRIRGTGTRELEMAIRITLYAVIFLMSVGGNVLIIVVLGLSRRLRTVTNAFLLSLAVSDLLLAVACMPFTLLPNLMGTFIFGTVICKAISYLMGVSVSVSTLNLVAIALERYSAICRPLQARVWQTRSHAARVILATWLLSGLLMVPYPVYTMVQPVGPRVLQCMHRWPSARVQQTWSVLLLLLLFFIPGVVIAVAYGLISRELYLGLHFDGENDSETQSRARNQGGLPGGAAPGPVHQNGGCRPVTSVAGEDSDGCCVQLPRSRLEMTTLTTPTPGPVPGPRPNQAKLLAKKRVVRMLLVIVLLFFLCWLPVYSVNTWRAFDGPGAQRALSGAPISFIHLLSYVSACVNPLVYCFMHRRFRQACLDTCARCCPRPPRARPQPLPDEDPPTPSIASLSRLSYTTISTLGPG
assay overview: gastrin antagonist activity in an immature rat stomach assay (pentagastrin-stimulated acid secretion, isolated stomach)
recorded conditions: cumulative pentagastrin dose-response curves, 60 min after drug
Experimental: The compounds of the examples were also tested for gastrin antagonist activity in an immature rat stomach assay. The procedure was follows: […] After 120 min of stabilisation the drugs were added directly to the serosal solution in the organ bath and after a further 60 min cumulative pentagastrin dose-response curves were started. Changes in acid secretion were monitored and the curves analysed according to Black et. al., Br. J. Pharmacol., 1985, 86, 581.
observation type: Gastrin pKB

molecule	Gastrin pKB
O=C(O)c1cc(NC(=O)[C@H](Cc2ccccc2)NC(=O)c2ccccc2C(=O)NCc2ccc3ccccc3c2)cc(C(=O)O)c1 [Example 6]	6.1
O=C(O)c1cc(NC(=O)[C@H](Cc2ccccc2)NC(=O)c2cocc2C(=O)NCC23CC4CC(CC(C4)C2)C3)cc(C(=O)O)c1 [Example 12]	6.5
O=C(O)c1cc(NC(=O)[C@H](Cc2ccccc2)NC(=O)c2ccccc2C(=O)NCC2CCCCCC2)cc(C(=O)O)c1 [Example 7]	6.3
O=C(O)c1cc(NC(=O)[C@H](Cc2ccccc2F)NC(=O)c2ccccc2C(=O)NCC23CC4CC(CC(C4)C2)C3)cc(C(=O)O)c1 [Example 4]	7.7
O=C(O)c1cc(NC(=O)[C@H](Cc2ccccc2)NC(=O)c2c(F)ccc(F)c2C(=O)NCC23CC4CC(CC(C4)C2)C3)cc(C(=O)O)c1 [Example 22]	7.5

###

tested system: CCKB (Mus musculus)
Construct: The cortex was dissected, weighed and homogenised in 40 ml ice-cold buffer; from tissue; host or cells: cerebral cortex membranes of male CD1 mice (Charles River)
Sequence (P56481 whole entry): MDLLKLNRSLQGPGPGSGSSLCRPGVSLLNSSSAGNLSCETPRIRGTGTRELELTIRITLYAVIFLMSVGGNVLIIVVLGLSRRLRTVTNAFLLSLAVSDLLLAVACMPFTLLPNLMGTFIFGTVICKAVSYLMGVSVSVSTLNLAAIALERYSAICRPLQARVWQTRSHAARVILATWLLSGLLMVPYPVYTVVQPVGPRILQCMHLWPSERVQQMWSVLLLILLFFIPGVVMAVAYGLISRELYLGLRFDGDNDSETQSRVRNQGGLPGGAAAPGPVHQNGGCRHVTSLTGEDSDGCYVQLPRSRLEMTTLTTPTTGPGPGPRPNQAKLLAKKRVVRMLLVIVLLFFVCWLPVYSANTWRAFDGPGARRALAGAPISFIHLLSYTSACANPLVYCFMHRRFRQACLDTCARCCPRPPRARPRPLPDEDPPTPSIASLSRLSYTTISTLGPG
assay overview: radioligand binding assay at the CCKB (CCK8 [sic]) receptor in mouse cortical membranes
recorded conditions: [125I]-CCK8S 200 pM, 150 min at 21±3° C.
observation type: CCKB pKi

smiles record	tested system	CCKB pKi
O=C(O)c1cc(NC(=O)[C@H](Cc2ccccc2)NC(=O)c2ccccc2C(=O)NCc2ccc3ccccc3c2)cc(C(=O)O)c1	CCKB (Mus musculus)	6.3
O=C(O)c1cc(NC(=O)[C@H](Cc2ccccc2)NC(=O)c2c(F)ccc(F)c2C(=O)NCC23CC4CC(CC(C4)C2)C3)cc(C(=O)O)c1	CCKB (Mus musculus)	7.3
O=C(O)c1cc(NC(=O)[C@H](Cc2ccccc2)NC(=O)c2ccccc2C(=O)NCC2CCCCCC2)cc(C(=O)O)c1	CCKB (Mus musculus)	6.5

###

tested system: CCKA (Cavia porcellus, UniProt Q63931)
Construct: The pancreatata were homogenised in 40 ml ice-cold HEPES buffer; from tissue; host or cells: pancreas membranes of male Dunkin Hartley guinea-pigs
assay overview: CCKA binding assay (guinea-pig pancreas membranes)
recorded conditions: [125I]-CCK8(S) 200 pM, 0.375 μM PD134,308 present, 150 minutes at 21±3° C., read-out: CCKA pKi (converted)
observation type: Ki (µM)

1 = O=C(O)c1cc(NC(=O)[C@H](Cc2ccccc2)NC(=O)c2cc([N+](=O)[O-])ccc2C(=O)NCC23CC4CC(CC(C4)C2)C3)cc(C(=O)O)c1
2 = Nc1ccc(C(=O)NCC23CC4CC(CC(C4)C2)C3)c(C(=O)N[C@@H](Cc2ccccc2)C(=O)Nc2cc(C(=O)O)cc(C(=O)O)c2)c1
3 = O=C(O)c1cc(NC(=O)[C@H](Cc2ccccc2)NC(=O)c2ncccc2C(=O)NCC23CC4CC(CC(C4)C2)C3)cc(C(=O)O)c1
Ascending by Ki, please: list the compounds accordingly. Please list each label once, in the requested order.
1, 3, 2
(1: 1 µM, 3: 2 µM, 2: 12.6 µM)

###

tested system: CCKA (Cavia porcellus, UniProt Q63931)
Construct: The pancreatata were homogenised in 40 ml ice-cold HEPES buffer; from tissue; host or cells: pancreas membranes of male Dunkin Hartley guinea-pigs
assay overview: CCKA binding assay (guinea-pig pancreas membranes)
recorded conditions: [125I]-CCK8(S) 200 pM, 0.375 μM PD134,308 present, 150 minutes at 21±3° C., read-out: CCKA pKi (converted)
Procedure: The compounds of the examples were also tested in a CCKA binding assay as follows: The pancreatata were removed from male guinea-pigs (200-300 g; Dunkin Hartley) and placed in ice-cold HEPES buffer (pH 7.2@21 ±3° C.). The pancreatata were homogenised in 40 ml ice-cold HEPES buffer using a polytron (Brinkman, PT10, setting 10) 4×1 second. The homogenate was centrifuged at 39,800 g for 15 min at 4° C. […]
observation type: Ki (µM)

smiles record	value units	Ki
O=C(Cc1ccccc1C(=O)NCC12CC3CC(CC(C3)C1)C2)N[C@@H](Cc1ccccc1)C(=O)Nc1cc(C(=O)O)cc(C(=O)O)c1	µM	3.16
O=C(Cc1ccccc1C(=O)N[C@@H](Cc1ccccc1)C(=O)Nc1cc(C(=O)O)cc(C(=O)O)c1)NCC12CC3CC(CC(C3)C1)C2	µM	3.16
Nc1ccc(C(=O)N[C@@H](Cc2ccccc2)C(=O)Nc2cc(C(=O)O)cc(C(=O)O)c2)c(C(=O)NCC23CC4CC(CC(C4)C2)C3)c1	µM	3.98
